- Study target: T1, α5β1 integrin on cells (PMA-activated K562 cells; U87MG cells) (human, UniProt P08648 42-1049; P05556 21-798)
- T1 construct: Endogenous integrin of human cell lines; also called cellular α5β1 integrin; cell surface α5β1 integrin receptors
- T1 sequence (P08648 42-1049 limits assumed, chain 1 of 2): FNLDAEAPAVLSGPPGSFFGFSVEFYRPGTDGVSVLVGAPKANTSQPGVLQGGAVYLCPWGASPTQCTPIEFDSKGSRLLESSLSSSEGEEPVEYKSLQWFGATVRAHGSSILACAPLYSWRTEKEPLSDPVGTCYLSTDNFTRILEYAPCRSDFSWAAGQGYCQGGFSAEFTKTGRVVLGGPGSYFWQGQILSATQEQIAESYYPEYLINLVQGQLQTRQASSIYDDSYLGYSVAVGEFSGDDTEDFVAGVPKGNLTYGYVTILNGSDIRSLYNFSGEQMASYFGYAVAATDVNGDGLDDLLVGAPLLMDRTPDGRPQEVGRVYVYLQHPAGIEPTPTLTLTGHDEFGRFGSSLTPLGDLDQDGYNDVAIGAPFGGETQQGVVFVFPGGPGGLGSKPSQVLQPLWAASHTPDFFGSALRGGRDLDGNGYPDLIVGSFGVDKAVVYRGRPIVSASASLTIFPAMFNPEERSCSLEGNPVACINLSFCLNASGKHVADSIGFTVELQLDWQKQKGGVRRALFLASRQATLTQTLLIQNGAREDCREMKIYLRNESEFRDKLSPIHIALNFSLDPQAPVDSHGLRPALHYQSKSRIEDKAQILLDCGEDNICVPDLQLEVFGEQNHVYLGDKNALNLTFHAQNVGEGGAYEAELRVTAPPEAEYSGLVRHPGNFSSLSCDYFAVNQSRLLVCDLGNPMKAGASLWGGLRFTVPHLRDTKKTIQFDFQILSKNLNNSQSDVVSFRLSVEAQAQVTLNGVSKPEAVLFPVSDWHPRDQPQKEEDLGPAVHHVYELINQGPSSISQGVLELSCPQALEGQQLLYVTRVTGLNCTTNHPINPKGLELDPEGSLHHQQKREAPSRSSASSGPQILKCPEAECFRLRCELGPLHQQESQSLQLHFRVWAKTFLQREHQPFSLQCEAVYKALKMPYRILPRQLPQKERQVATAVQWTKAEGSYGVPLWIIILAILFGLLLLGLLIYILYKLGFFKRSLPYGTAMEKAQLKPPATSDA
- T1 sequence (P05556 21-798 limits assumed, chain 2 of 2): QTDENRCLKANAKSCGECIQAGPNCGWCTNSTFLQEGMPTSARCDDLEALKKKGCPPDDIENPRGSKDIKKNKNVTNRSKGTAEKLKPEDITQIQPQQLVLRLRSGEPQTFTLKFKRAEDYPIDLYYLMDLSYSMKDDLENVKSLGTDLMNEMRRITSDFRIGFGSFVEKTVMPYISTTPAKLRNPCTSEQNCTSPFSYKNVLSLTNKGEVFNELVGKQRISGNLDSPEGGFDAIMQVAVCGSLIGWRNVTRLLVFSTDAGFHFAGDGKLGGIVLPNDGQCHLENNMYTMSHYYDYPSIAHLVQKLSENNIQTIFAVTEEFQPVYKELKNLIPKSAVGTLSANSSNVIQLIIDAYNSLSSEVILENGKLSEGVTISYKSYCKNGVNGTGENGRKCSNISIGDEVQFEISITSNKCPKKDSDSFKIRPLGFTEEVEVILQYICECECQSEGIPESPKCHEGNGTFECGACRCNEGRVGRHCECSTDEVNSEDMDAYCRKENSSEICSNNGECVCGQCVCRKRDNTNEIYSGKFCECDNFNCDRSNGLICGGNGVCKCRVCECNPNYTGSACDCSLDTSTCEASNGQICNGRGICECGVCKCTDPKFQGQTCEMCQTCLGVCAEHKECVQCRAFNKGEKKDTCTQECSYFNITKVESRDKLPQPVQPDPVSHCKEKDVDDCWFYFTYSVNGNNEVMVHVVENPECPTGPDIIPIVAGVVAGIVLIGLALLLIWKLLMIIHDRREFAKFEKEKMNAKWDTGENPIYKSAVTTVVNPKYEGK
- Run description: flow cytometry on PMA-activated K562 cells, hybridoma supernatant
- Description: Four weeks later cells from spleens and draining lymph nodes were fused to create hybridomas. […] In short, hybridoma supernatants were incubated with the activated K562 cells for 20 minutes, washed, then incubated with a fluorescent conjugated detecting antibody for 20 minutes, washed, resuspended in 7-Aminoactinomycin D, and Mean Fluorescence Intensity (MFI) measured on a Guava cytometer (Luminex Corporation, Austin, TX 78727).
Binary label based on MFI with cut-off 3000: below gives 1 (yes), not below gives 0 (no).

1) A-7D06 (antibody, V domains shown, mouse hybridoma) VH: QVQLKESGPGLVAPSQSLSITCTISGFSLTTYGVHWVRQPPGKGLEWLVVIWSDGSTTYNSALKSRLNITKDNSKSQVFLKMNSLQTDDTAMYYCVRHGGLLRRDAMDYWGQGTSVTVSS VL: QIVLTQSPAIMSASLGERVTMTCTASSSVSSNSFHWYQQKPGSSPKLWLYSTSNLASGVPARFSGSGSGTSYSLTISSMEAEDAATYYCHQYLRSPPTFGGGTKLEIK; 1 (yes)
2) A2-9A11 (antibody, V domains shown, mouse hybridoma) VH: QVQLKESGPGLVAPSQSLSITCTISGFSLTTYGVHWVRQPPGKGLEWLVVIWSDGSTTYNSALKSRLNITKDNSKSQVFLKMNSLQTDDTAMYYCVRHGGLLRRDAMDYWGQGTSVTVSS VL: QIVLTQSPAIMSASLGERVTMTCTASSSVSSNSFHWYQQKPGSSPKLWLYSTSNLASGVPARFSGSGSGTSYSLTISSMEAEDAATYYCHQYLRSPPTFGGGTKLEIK; 0 (no)
3) A-4G02 (antibody, V domains shown, mouse hybridoma) VH: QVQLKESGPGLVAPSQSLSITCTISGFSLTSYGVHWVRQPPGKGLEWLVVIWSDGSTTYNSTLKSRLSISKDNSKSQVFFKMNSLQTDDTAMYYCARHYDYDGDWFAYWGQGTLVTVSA VL: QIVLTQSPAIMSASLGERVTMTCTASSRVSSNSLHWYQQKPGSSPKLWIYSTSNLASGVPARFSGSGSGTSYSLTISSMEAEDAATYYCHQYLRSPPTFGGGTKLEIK; 1 (yes)
4) A-14G08 (antibody, V domains shown, mouse hybridoma) VH: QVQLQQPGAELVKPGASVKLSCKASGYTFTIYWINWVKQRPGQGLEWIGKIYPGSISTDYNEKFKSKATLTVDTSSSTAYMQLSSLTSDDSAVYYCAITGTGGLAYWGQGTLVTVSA VL: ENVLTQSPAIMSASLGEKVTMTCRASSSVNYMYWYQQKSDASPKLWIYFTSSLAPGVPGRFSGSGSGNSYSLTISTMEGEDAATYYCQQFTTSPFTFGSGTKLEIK; 0 (no)
5) A-15H11 (antibody, V domains shown, mouse hybridoma) VH: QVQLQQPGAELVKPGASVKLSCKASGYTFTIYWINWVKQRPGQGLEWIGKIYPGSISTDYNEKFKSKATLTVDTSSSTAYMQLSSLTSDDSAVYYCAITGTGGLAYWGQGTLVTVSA VL: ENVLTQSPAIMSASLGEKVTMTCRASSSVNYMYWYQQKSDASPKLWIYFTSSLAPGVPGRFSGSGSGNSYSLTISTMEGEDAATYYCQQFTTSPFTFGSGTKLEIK; 0 (no)
6) A-3A08 (antibody, V domains shown, mouse hybridoma) VH: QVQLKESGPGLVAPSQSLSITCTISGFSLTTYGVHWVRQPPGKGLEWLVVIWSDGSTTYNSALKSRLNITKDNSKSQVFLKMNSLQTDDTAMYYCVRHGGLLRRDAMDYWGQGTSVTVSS VL: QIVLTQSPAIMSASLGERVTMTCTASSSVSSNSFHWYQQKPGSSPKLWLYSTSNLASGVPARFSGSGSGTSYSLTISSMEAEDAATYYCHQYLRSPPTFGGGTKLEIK; 1 (yes)
7) A2-3B06 (antibody, V domains shown, mouse hybridoma antibody (supernatant, or purified by Protein A); also called antibody designated A2-3B06) VH: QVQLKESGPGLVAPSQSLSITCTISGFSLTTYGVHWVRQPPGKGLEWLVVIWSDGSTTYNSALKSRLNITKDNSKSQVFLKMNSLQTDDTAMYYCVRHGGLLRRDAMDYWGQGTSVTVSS VL: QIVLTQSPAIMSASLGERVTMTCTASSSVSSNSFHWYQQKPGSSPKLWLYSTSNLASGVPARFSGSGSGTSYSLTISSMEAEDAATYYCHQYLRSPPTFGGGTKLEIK; 1 (yes)
8) A2-5D10 (antibody, V domains shown, mouse hybridoma antibody (supernatant, or purified by Protein A); also called antibody designated A2-5D10) VH: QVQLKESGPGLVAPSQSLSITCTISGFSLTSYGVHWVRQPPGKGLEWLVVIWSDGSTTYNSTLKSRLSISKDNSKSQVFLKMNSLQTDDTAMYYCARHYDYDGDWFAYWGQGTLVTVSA VL: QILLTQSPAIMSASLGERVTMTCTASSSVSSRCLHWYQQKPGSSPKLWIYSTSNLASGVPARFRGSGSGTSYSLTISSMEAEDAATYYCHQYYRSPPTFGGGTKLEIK; 1 (yes)
9) A2-7F01 (antibody, V domains shown, mouse hybridoma antibody (supernatant, or purified by Protein A); also called antibody designated A2-7F01) VH: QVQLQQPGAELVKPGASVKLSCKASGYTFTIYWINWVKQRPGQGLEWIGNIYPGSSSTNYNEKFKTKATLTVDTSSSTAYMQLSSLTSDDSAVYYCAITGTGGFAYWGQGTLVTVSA VL: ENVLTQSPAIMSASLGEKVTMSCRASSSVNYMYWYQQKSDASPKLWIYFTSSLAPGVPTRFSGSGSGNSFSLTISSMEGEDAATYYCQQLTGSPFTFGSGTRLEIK; 0 (no)
10) A2-7A05 (antibody, V domains shown, mouse hybridoma antibody (supernatant, or purified by Protein A); also called antibody designated A2-7A05; A-7A05) VH: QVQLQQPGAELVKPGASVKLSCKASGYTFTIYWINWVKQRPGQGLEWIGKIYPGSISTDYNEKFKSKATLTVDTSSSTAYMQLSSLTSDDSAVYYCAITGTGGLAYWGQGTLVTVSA VL: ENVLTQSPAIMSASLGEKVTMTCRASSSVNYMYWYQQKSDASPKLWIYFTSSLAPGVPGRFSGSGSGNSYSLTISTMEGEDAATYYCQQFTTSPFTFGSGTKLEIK; 0 (no)

Reference source for all entries: patent US20240279345A1
